Give measured rat MASP2 IC50 for each item. Keep answers brief.
# TESTED_SYSTEM: recombinant rat MASP2 active protease (amino acids 296-685, C-terminal His Tag) (rat, UniProt Q9JJS8 296-685)
# Sequence (Q9JJS8 other isoform, or with tags, fused parts or gaps limits assumed): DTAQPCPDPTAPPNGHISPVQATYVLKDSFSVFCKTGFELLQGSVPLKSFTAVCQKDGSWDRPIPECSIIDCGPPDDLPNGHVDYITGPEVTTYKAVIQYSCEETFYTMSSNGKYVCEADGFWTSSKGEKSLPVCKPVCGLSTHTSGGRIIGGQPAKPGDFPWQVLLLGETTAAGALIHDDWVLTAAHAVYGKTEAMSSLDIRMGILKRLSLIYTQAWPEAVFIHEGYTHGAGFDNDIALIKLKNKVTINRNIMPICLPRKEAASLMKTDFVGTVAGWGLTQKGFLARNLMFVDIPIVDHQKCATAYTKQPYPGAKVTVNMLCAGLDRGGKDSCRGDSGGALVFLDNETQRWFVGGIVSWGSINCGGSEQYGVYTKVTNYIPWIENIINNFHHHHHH
# ASSAY_NAME: cell-based or functional assay
Numbered stars: 1 amine (or outer) side, 2 acyl side, 3 side chain; on linkers, the order of the positions; unused ones are H or OH. Bridge positions count the residues as written; N and C are the ends. Square brackets hold non-standard residues; d marks the D form. Ends that are not written are not given here. Freidinger's Lactam = (2S)-2-[(3R)-3-amino-2-oxopyrrolidin-1-yl]-4-methylpentanoic acid (Freidinger's lactam), CC(C)C[C@@H](C(=O)[*:2])N1CC[C@@H](N[*:1])C1=O; X13 = (2S)‑2‑amino‑3‑(1-methylcyclopropyl)propanoic acid, CC1(C[C@H](N[*:1])C(=O)[*:2])CC1; (S)‑4‑Piperazine‑2‑carboxylic acid = (S)-4-piperazine-2-carboxylic acid; X11 = (S)‑Piperidine‑3‑carboxylic acid, O=C([C@H]1CCCN([*:1])C1)[*:2]; Oic = O=C(O)[C@@H]1C[C@@H]2CCCC[C@@H]2N1; PEG6 = NCCOCCOCCOCCOCCOCCOCCC(=O)O; tBuAla = CC(C)(C)C[C@H](N)C(=O)O; Pen = CC(C)(S)[C@H](N)C(=O)O; β3hP = O=C(O)C[C@@H]1CCCN1; Orn = NCCC[C@H](N)C(=O)O; Sar = CNCC(=O)O
Please state the figure in nM; there is no need to write the unit.

Noted for [Orn]ICSRSLP[Oic]I[Pen]IPD-OH (disulfide 3-11; N-terminus assumed; SMILES CC[C@H](C)[C@H](NC(=O)[C@@H](N)CCCN)C(=O)N[C@H]1CSSC(C)(C)[C@@H](C(=O)N[C@H](C(=O)N2CCC[C@H]2C(=O)N[C@@H](CC(=O)O)C(=O)O)[C@@H](C)CC)NC(=O)[C@H]([C@@H](C)CC)NC(=O)[C@@H]2C[C@@H]3CCCC[C@@H]3N2C(=O)[C@@H]2CCCN2C(=O)[C@H](CC(C)C)NC(=O)[C@H](CO)NC(=O)[C@H](CCCNC(=N)N)NC(=O)[C@H](CO)NC1=O) [Example 469: (Orn)-IC+SRSLP-(Oic)-I-(Pen)+IPD-OH] : its rat MASP2 IC50 reads 34

Recorded result, [Sar]ICSRSLP[Oic]I[Pen]I[(S)‑4‑Piperazine‑2‑carboxylic acid]-OH (disulfide 3-11) [Example 474: ((N-Me))-GIC+SRSLP-(Oic)-I-(Pen)+I-((S)-4-Piperazine-2-carboxylic acid)-OH] , rat MASP2 IC50: 26

# rat MASP2 IC50 (binder: AICSRSLP[Oic]I[Pen]IPD-OH (disulfide 3-11; also: TFA salt) [Example 13: AIC+SRSLP-(Oic)-I-(Pen)+IPD-OH] ) is 16.4

// rat MASP2 IC50 lookup, binder = [Sar]ICSRSLP[Oic]I[Pen]IP[β3hP]-OH (disulfide 3-11; N-terminus assumed; SMILES CC[C@H](C)[C@H](NC(=O)CNC)C(=O)N[C@H]1CSSC(C)(C)[C@@H](C(=O)N[C@H](C(=O)N2CCC[C@H]2C(=O)N2CCC[C@H]2CC(=O)O)[C@@H](C)CC)NC(=O)[C@H]([C@@H](C)CC)NC(=O)[C@@H]2C[C@@H]3CCCC[C@@H]3N2C(=O)[C@@H]2CCCN2C(=O)[C@H](CC(C)C)NC(=O)[C@H](CO)NC(=O)[C@H](CCCNC(=N)N)NC(=O)[C@H](CO)NC1=O) [Example 455: ((N-Me)G)-IC+SRSLP-(Oic)-I-(Pen)+IP-(beta-homo-P)-OH] , result: 32

Item: [Sar]ICSRSLP[Oic]I[Pen]IP[PEG6]-NH2 (disulfide 3-11; N-terminus assumed; SMILES CC[C@H](C)[C@H](NC(=O)CNC)C(=O)N[C@H]1CSSC(C)(C)[C@@H](C(=O)N[C@H](C(=O)N2CCC[C@H]2C(=O)NCCOCCOCCOCCOCCOCCOCCC(N)=O)[C@@H](C)CC)NC(=O)[C@H]([C@@H](C)CC)NC(=O)[C@@H]2C[C@@H]3CCCC[C@@H]3N2C(=O)[C@@H]2CCCN2C(=O)[C@H](CC(C)C)NC(=O)[C@H](CO)NC(=O)[C@H](CCCNC(=N)N)NC(=O)[C@H](CO)NC1=O) [Example 140: ((N-Me)G)-IC+SRSLP-(Oic)-I-(Pen)+IP-(PEG5(22 atoms))-NH2] | rat MASP2 IC50: 50

The reported value for [Sar]ICSRS[X13]P[Oic]I[Pen]IP-NH2 (disulfide 3-11; N-terminus assumed; SMILES CC[C@H](C)[C@H](NC(=O)CNC)C(=O)N[C@H]1CSSC(C)(C)[C@@H](C(=O)N[C@H](C(=O)N2CCC[C@H]2C(N)=O)[C@@H](C)CC)NC(=O)[C@H]([C@@H](C)CC)NC(=O)[C@@H]2C[C@@H]3CCCC[C@@H]3N2C(=O)[C@@H]2CCCN2C(=O)[C@H](CC2(C)CC2)NC(=O)[C@H](CO)NC(=O)[C@H](CCCNC(=N)N)NC(=O)[C@H](CO)NC1=O) in terms of rat MASP2 IC50 is 42

Entry [Sar]ICSRSLP[Oic]I[Pen]IP[Freidinger's Lactam]-OH (disulfide 3-11; N-terminus assumed; SMILES CC[C@H](C)[C@H](NC(=O)CNC)C(=O)N[C@H]1CSSC(C)(C)[C@@H](C(=O)N[C@H](C(=O)N2CCC[C@H]2C(=O)N[C@@H]2CCN([C@@H](CC(C)C)C(=O)O)C2=O)[C@@H](C)CC)NC(=O)[C@H]([C@@H](C)CC)NC(=O)[C@@H]2C[C@@H]3CCCC[C@@H]3N2C(=O)[C@@H]2CCCN2C(=O)[C@H](CC(C)C)NC(=O)[C@H](CO)NC(=O)[C@H](CCCNC(=N)N)NC(=O)[C@H](CO)NC1=O) [Example 527: ((N-Me)G)-IC+SRSLP-(Oic)-I-(Pen)+IP-(Freidinger's Lactam)-OH] ; rat MASP2 IC50 = 42

Entry [X11]ICSRSLP[Oic]I[Pen]I-OH (disulfide 3-11; N-terminus assumed; SMILES CC[C@H](C)[C@H](NC(=O)[C@H]1NC(=O)[C@H]([C@@H](C)CC)NC(=O)[C@@H]2C[C@@H]3CCCC[C@@H]3N2C(=O)[C@@H]2CCCN2C(=O)[C@H](CC(C)C)NC(=O)[C@H](CO)NC(=O)[C@H](CCCNC(=N)N)NC(=O)[C@H](CO)NC(=O)[C@@H](NC(=O)[C@@H](NC(=O)[C@H]2CCCNC2)[C@@H](C)CC)CSSC1(C)C)C(=O)O) [Example 460: ((S)-Piperidine-3-carboxylic acid)-IC+SRSLP-(Oic)-I-(Pen)+I-OH] — recorded rat MASP2 IC50 = 69

What the record says about [Sar][Orn][Orn][Orn]ICSRS[tBuAla]PPI[Pen]IP-NH2 (disulfide 6-14; N-terminus assumed; SMILES CC[C@H](C)[C@H](NC(=O)[C@H](CCCN)NC(=O)[C@H](CCCN)NC(=O)[C@H](CCCN)NC(=O)CNC)C(=O)N[C@H]1CSSC(C)(C)[C@@H](C(=O)N[C@H](C(=O)N2CCC[C@H]2C(N)=O)[C@@H](C)CC)NC(=O)[C@H]([C@@H](C)CC)NC(=O)[C@@H]2CCCN2C(=O)[C@@H]2CCCN2C(=O)[C@H](CC(C)(C)C)NC(=O)[C@H](CO)NC(=O)[C@H](CCCNC(=N)N)NC(=O)[C@H](CO)NC1=O) [Example 381: ((N-Me)G)-(Orn)-(Orn)-(Orn)-IC+SRS-((tBu)A)-PPI-(Pen)+IP-NH2] : rat MASP2 IC50 is 470
